Assayed Target: T1, human CD22-ECD-His protein (human, UniProt P20273 20-687)
T1 construct: Made in house in HEK293E; also called hCD22-ECD-His; recombinant human CD22-ECD His protein; not shown: His tag
T1 sequence: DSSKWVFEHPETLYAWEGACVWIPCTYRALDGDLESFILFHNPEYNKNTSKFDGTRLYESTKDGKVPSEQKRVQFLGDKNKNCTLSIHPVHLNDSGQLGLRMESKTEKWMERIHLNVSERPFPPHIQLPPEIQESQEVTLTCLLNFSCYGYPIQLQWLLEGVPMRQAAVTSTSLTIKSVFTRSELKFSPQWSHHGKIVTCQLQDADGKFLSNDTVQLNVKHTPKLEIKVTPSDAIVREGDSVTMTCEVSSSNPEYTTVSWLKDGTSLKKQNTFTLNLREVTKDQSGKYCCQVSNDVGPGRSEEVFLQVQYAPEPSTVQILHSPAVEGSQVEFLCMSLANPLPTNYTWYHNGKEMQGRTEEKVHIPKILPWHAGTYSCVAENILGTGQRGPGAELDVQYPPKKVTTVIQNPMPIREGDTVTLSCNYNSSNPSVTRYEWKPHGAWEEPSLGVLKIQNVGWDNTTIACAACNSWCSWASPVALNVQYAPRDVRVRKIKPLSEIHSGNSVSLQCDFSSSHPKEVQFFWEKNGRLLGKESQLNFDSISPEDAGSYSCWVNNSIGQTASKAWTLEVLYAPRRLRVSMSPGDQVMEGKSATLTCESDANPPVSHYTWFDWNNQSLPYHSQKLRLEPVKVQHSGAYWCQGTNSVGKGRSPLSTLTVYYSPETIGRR
Protocol Text: ELISA, Ab 0.0001 nM
Rule: OD450 below 0.2 OD450 gives class 1. Equal to or above 0.2 OD450 gives class 0.

F1.161.7 (antibody, human IgG1, kappa, V domains shown, Human-murine chimeric IgG1, kappa) VH: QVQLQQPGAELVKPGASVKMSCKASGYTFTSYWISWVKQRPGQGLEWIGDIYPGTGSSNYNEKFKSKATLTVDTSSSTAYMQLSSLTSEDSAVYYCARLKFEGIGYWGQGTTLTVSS VL: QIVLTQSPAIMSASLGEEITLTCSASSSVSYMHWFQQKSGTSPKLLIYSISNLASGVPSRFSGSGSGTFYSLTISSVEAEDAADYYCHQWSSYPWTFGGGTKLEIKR
class 0
HA22-hIgG1 (antibody, V domains shown) VH: EVQLVESGGGLVKPGGSLKLSCAASGFAFSIYDMSWVRQTPEKCLEWVAYISSGGGTTYYPDTVKGRFTISRDNAKNTLYLQMSSLKSEDTAMYYCARHSGYGTHWGVLFAYWGQGTLVTVSA VL: DIQMTQTTSSLSASLGDRVTISCRASQDISNYLNWYQQKPDGTVKLLIYYTSILHSGVPSRFSGSGSGTDYSLTISNLEQEDFATYFCQQGNTLPWTFGCGTKLEIKR
class 0

Hello, I'm reviewing records and need to know if OD450 of F2.70.2 (antibody, human IgG1, lambda, V domains shown, Human-murine chimeric IgG1, lambda) VH: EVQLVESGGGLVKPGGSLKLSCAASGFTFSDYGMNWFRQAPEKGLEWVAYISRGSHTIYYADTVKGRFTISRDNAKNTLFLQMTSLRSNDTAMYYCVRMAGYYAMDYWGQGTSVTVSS VL: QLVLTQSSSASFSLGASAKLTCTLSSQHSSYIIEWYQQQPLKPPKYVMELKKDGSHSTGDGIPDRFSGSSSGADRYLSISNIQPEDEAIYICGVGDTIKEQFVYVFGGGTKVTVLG is below 0.2 OD450. Could you check?
class 1

Hello, I'm reviewing records and need to know if OD450 of F1.62.10 (antibody, human IgG1, kappa, V domains shown, Human-murine chimeric IgG1, kappa) VH: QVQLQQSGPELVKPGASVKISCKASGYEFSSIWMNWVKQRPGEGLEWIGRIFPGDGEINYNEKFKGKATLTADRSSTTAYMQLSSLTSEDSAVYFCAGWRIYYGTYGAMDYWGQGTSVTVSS VL: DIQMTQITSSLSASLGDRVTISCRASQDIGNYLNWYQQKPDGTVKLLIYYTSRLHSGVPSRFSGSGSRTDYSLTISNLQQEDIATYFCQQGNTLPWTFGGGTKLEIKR is below 0.2 OD450. Could you check?
class 0

Hello, I'm reviewing records and need to know if OD450 of F2.42.9 (antibody, human IgG1, lambda, V domains shown, Human-murine chimeric IgG1, lambda) VH: QVTLKESGPGILQPSQTLSLTCSFSGFSLSTFDRGVGWIRQPSGKGLEWLAHIWWNDKKFYNPVLKSRLTISKDTSKNQVFLTIANVDSADTATYSCARIVWDKYYFDYWGQGIPLTVSS VL: QLVLTQSSSASFSLGASAKLTCTLSSQHSAYTIEWYQQQPLKPPKFVMDLKKDGSHSTGDGIPARFSGSSSGADRYLTISNIQPEDEAIYICGVGDTIKEQYVFGGGTKVTVLG is below 0.2 OD450. Could you check?
class 1

Hello, I'm reviewing records and need to know if OD450 of F2.205.9 (antibody, human IgG1, lambda, V domains shown, Human-murine chimeric IgG1, lambda) VH: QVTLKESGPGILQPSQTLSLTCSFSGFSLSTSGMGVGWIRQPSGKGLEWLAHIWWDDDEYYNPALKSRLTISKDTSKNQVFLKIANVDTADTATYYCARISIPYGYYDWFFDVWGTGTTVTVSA VL: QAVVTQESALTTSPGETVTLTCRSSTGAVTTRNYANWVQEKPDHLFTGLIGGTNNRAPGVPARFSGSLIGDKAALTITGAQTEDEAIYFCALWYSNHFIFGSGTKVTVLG is below 0.2 OD450. Could you check?
class 0

Hello, I'm reviewing records and need to know if OD450 of F1.60.9 (antibody, human IgG1, kappa, V domains shown, Human-murine chimeric IgG1, kappa) VH: QVQLKESGPGLVAPSQSLSITCTVSGLSLNNYGVSWVRQPPGKGLEWLGVIWGDGSTNYHSALISRLSISKDNSKSQVFLKLNSLHTDDTATYYCAINWGDYWGQGTTLIVSS VL: DIKMTQSPSSMNASLGERVTITCKASQDINSYLSWFQQKPGKSPKILIYRANRLIDGVPSRFSGSGSGQDYSLTISSLEYEDMGIYYCLQYGVFPLTFGAGTKLELKR is below 0.2 OD450. Could you check?
class 1
